test_protocol: Plasma and tissue concentrations of ketamine via olfactory delivery compared to intravenous administration in rats (LC/MS/MS)
Assay type: in vivo, male Sprague Dawley rats
measurement_parameters: rat, plasma, OD, 5 mg/kg, 90 min
Where a name gives a salt, the structure may show the parent alone.
attribute_measured: concentration at 1.5 h (ng/mL)
Give a bare numeral; the unit ng/mL is implied.

Query: I'd like to know its concentration at 1.5 h. The molecule in question is CNC1(c2ccccc2Cl)CCCCC1=O (stereo not shown) [Ketamine-HCl]
Response: 149

----------
test_protocol: Plasma and tissue concentrations of ketamine via olfactory delivery compared to intravenous administration in rats (LC/MS/MS)
Format: in vivo, male Sprague Dawley rats
measurement_parameters: rat, plasma, IV, 5 mg/kg, 15 min
Counter-ions that a name gives are not always drawn.
attribute_measured: concentration at 0.25 h (ng/mL)
Give a bare numeral; the unit ng/mL is implied.

Query: I'd like to know its concentration at 0.25 h. The molecule in question is CNC1(c2ccccc2Cl)CCCCC1=O (stereo not shown) [Ketamine-HCl]
Response: 686
